# maps each entry to its EC50
target: Corticotropin-releasing factor receptor 2/Corticotropin-releasing factor-binding protein (Homo sapiens, UniProt P24387+Q13324); assay: activators of CRF receptor 2 with binding protein – uHTS hits, confirmation (AID 602473); type: functional; settings: read-out: EC50_Mean
Sequence (Q13324 whole entry): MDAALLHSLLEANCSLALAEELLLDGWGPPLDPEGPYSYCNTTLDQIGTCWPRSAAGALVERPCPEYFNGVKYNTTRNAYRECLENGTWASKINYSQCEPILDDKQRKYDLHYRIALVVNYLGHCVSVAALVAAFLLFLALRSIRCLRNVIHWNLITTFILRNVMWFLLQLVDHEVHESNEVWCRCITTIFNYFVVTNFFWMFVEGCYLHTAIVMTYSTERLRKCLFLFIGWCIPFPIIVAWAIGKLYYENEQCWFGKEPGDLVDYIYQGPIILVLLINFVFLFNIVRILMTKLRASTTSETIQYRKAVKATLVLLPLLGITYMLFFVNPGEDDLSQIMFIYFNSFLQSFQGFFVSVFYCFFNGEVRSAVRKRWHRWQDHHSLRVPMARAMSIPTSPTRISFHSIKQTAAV
Sequence (P24387 whole entry): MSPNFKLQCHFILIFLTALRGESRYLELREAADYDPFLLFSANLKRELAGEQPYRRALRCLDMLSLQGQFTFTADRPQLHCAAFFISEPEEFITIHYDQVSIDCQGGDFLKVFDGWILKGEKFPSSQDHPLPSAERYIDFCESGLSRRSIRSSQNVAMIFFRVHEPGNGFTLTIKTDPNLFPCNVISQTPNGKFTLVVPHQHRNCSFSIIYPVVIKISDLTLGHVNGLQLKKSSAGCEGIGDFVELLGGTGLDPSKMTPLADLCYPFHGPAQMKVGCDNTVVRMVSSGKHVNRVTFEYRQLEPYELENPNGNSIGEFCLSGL
Active and inactive are the calls of the source.

| compound | EC50 |
| --- | --- |
| COc1cc2c(cc1OC)-c1cc(Nc3ccc(C(=O)O)cc3)nc(=O)n1CC2 | > 53 µM (inactive) |
| Cc1ccc2c(cnn2C(=O)CCC(=O)N2CCCCC2)c1 | > 53 µM (inactive) |
| Cc1cc(C)cc(NC(=O)c2ccc(N3C(=O)C4CCCCC4C3=O)cc2)c1 (configuration not stated) | > 53 µM (inactive) |
| CSc1ccccc1NC(=O)COC(=O)c1c[nH]c(=O)[nH]c1=O | > 53 µM (inactive) |
| COc1ccc(N(CC(=O)N/N=C/c2ccc3c(c2)OCO3)S(=O)(=O)c2ccc(NC(C)=O)cc2)cc1 | > 53 µM (inactive) |
| COC(=O)c1ccc(Sc2ccc(Cl)cc2)c(N)c1 | > 53 µM (inactive) |
| CCOc1ccc(C(=O)Nc2cnn(Cc3ccc(Cl)c(Cl)c3)c2)cc1 | > 53 µM (inactive) |
| Nc1ccccc1SC1CC(=O)N(c2ccc3c(c2)OCO3)C1=O (configuration not stated) | > 53 µM (inactive) |
| CSc1ccccc1C(=O)N1CCN(S(=O)(=O)c2sc(C(=O)O)c(C)c2C(=O)O)CC1 | > 53 µM (inactive) |
| COc1ccccc1NS(=O)(=O)c1cc(C(=O)N2CCCC2)ccc1F | > 53 µM (inactive) |
| O=[N+]([O-])c1ccc(N(c2ccccc2)c2ccccc2)cc1 | 24.3 µM (active) |
| Nc1nonc1-n1nnc(C(=O)N/N=C/c2ccccc2)c1CSc1ccc(Cl)cc1 | > 53 µM (inactive) |
| COCCN1CCC(CO)C1 (configuration not stated) | > 53 µM (inactive) |
| CC(C)(CSc1ncccn1)NS(=O)(=O)c1ccccc1 | > 53 µM (inactive) |
| CC12CC3CC(C)(C1)CC(C(=O)NNC(=O)c1ccncc1)(C3)C2 | > 53 µM (inactive) |
| O=C(CCN1CCCC1=O)NC1CCCc2c1cnn2-c1ccccc1F (configuration not stated) | > 53 µM (inactive) |
| Cc1c(C(=O)Nc2cccc([N+](=O)[O-])c2)sc2ncn(CC(=O)N3CCOCC3)c(=O)c12 | > 53 µM (inactive) |
| Cc1onc(-c2ccccc2)c1CNC(=O)CN1C(=O)c2ccccc2C1=O | > 53 µM (inactive) |
| O=C(COc1cccc(Cl)c1)Nc1ccc(N2CCOCC2)cc1 | > 53 µM (inactive) |
| CC1=C(C#N)C(=O)NC(C)(C)C1 | > 53 µM (inactive) |
| CCn1cc(C(=O)NCCCN(CC(C)C)CC(C)C)c(=O)c2cc(S(=O)(=O)N(C)C3CCCCC3)ccc21 | 7.06 µM (active) |
| CCOc1cc2[nH]c(=O)n(Cc3ccccc3)c(=O)c2cc1OCC | > 53 µM (inactive) |

* * *

The following are reported AC50 results, target or system UniProtKB P11712.
Sequence (P11712 whole entry): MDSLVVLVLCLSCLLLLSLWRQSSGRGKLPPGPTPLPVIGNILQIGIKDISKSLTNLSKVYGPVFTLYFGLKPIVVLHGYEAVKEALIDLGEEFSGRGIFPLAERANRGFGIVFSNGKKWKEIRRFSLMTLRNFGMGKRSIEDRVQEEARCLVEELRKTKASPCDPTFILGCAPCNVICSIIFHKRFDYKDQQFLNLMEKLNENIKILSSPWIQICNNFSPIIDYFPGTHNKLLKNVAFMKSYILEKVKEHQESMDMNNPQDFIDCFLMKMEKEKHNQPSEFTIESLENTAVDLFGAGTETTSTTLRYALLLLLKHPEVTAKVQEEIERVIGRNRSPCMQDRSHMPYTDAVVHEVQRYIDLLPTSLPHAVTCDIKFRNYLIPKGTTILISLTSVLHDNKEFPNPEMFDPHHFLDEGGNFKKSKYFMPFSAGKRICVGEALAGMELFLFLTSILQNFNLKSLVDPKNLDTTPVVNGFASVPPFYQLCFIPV
outcomeMeasure: AC50

| compound | system | measValue |
| --- | --- | --- |
| O=C(NCCN1CCN(Cc2ccccc2)CC1)C1CC(=O)N(C2CCCC2)C1 (stereo unspecified) | UniProtKB P11712 | 0.398 µM (inconclusive) |
| COc1ccc(C(=O)N/N=C2/C(=O)c3c(C)cc(C)cc3CC2(C)C)cc1 | UniProtKB P11712 | 6.31 µM (inconclusive) |
| O=C(CCNS(=O)(=O)c1cccs1)N1CCCCCC1 | UniProtKB P11712 | 28.2 µM (inconclusive) |
| O=C(NC(=S)Nc1ccc(C(=O)N2CCOCC2)cc1)c1ccc([N+](=O)[O-])cc1 | UniProtKB P11712 | 0.891 µM (inconclusive) |
| O=C(CCCn1c(=S)[nH]c2cc3c(cc2c1=O)OCO3)N1CCN(c2ccccc2)CC1 | UniProtKB P11712 | 0.0891 µM (inconclusive) |
| CCOC(=O)c1cnc(-n2nc(C)cc2C)nc1NCCO | UniProtKB P11712 | 20 µM (inconclusive) |
| O=C(O)/C=C\c1ccc(O)c(O)c1 | UniProtKB P11712 | 15.8 µM (inconclusive) |
| Cc1cccc(C)c1NC(=O)CSc1nc(C)c(CC(=O)c2ccc(Br)cc2)c(C)c1C#N | UniProtKB P11712 | 1.12 µM (inconclusive) |
| Cc1ccc2[nH]c(C3CCCN(C(S)=Nc4ccccc4C)C3)nc2c1 (stereo unspecified) | UniProtKB P11712 | 3.16 µM (inconclusive) |
| CCc1nc(SCC(=O)N2CCCc3ccccc32)c2oc3ccccc3c2n1 | UniProtKB P11712 | 4.47 µM (inconclusive) |
| COC(=O)c1[nH]c2cc(OC)ccc2c1NC(=O)c1nonc1C | UniProtKB P11712 | 1.26 µM (inconclusive) |
